Sourced from patent US20240391954A1

test: Pharmacokinetics: plasma and brain concentration after IP injection; format: in vivo, mouse; conditions: female, CD-1, mouse; mice, IP 15 mg/kg, 0.5 h, brain, mean of 3
Positions of bridges follow the written chain, without caps; N, C: chain ends. Non-standard residues stand in square brackets, D forms with d. Residues, ends and D or L forms follow the SMILES beside them. Nle = CCCC[C@H](N)C(=O)O
assay endpoint: tissue level at time at 0.5 h (ng/g)
Kindly answer with a numeric value in ng/g, unit omitted.

### Prompt Value lookup for tissue level at time at 0.5 h; key = CCCC[C@H](NC(=O)[C@H](CCCNC(=N)N)NC(C)=O)C(=O)N[C@H]1CSSC[C@@H](C(N)=O)NC(=O)[C@H](Cc2c[nH]c3ccccc23)NC(=O)[C@H](CCCNC(=N)N)NC(=O)[C@@H](Cc2ccccc2)NC(=O)[C@H](Cc2c[nH]cn2)NC1=O [CTX-1227, Arg-Nle-cyclo(Cys-His-D-Phe-Arg-Trp-Cys)] (Ac-R[Nle]CH[dF]RWC-NH2; disulfide 3-8 (inferred))
### Response 182
